These measurements were taken from PubChem BioAssay (NCI).

Tested on: SK-MEL-2 melanoma
Assay: NCI tumour cell line growth inhibition, 48 h
We begin with a simple list: items and their reported TGI.

The examples below pair each entry with its known result.
- molecule: "Nc1nc(Cl)nc2c1ncn2C1CCC(CO)O1 (stereo unspecified)"
  measurement: "> 100 µM"
- molecule: "Cc1ccc2cccc(OC(=O)c3cc4c(cc3Cl)Sc3nccn3S4(=O)=O)c2n1"
  measurement: "27.1 µM"
- molecule: "Clc1ccc(-c2cc(-c3nc4ccccc4[nH]3)no2)cc1"
  measurement: "34.7 µM"
- molecule: "O=C(Nc1ncc(Cc2ccc(Cl)cc2)s1)c1ccc2c(c1)OCCO2"
  measurement: "> 69.4 µM"
- molecule: "O=C(O)C#Cc1ccc([N+](=O)[O-])cc1"
  measurement: "> 100 µM"
- molecule: "N=c1c2ccccc2nc2oc3ccc(Cl)cc3n12"
  measurement: "51.3 µM"
- molecule: "CO/N=C/c1c(-c2ccc(Cl)cc2)c(/C=N/OC)n2c1sc1ccccc12"
  measurement: "> 100 µM"
- molecule: "CCN(CC)CCCC(C)Nc1ccnc2cc(Cl)c(SCc3ccccc3)cc12 (stereo unspecified)"
  measurement: "3.22 µM"

What does the data say about its TGI? Entry: CCCCN1C(=O)C[C@H]2[C@@H]3CCc4cc(OCCN5CCCC5)ccc4[C@H]3CC[C@]2(C)C1=O
19.2 µM

Okay, and O=C1C(c2c(O)[nH]c3ccc(S(=O)(=O)N(CCO)CCO)cc23)=Nc2ccccc21 ?
> 100 µM

Okay, and O=c1[nH]c(C2CCCCC2)nc2cc(Cl)ccc12 ?
> 100 µM
